Collected composite z-score values appear next to each entry.
# assayedSystem: Alpha-bungarotoxin (Bungarus multicinctus)
# method: alpha-bungarotoxin binders on microarray, profiling panel, artefact control for SMM control protein annotation, biochemical, small-molecule microarray, Alexa647 label, 635/667 nm fluorescence (AID 1117)
# statedConditions: alpha-BTX-A647 binding fluorescence, higher = more signal
The answer should be a number; do not append a unit.

Field: example entries. Status: answers known.
• COc1cc(O)c(C(=O)C=Cc2ccc3c(c2)OCO3)c(OC)c1 = 0.825
• C=COC[C@@H]1CN2[C@@H](CC[C@@H](C)[C@@H]2c2ccc(Br)cc2)C(=O)O1 = 0.259

Exercise: For the compound shown here, CO[C@@H]1C=CCC(=O)N2CCC[C@H]2C(=O)OC[C@@H](C)C(=O)OC[C@H]1C , give the reported composite z-score.
Key: -0.276

Exercise: And then COc1ccc(COC(=O)NN=C2C[C@@H](O)[C@@H](O)[C@@H]3[C@@H]4C(=O)N(c5ccc(F)cc5F)C(=O)[C@@H]4CC[C@H]23)cc1 , what is it?
Key: 0.616

Exercise: And then COC(=O)[C@@H]1CC[C@H](C)[C@@H](c2ccc(C)cc2)N1C(=O)c1ccc(C=NO[C@@H]2O[C@H](COC(C)=O)[C@@H](OC(C)=O)[C@H](OC(C)=O)[C@H]2OC(C)=O)cc1 , what is it?
Key: 0.884

Exercise: And then O=C1C=C[C@@H](O)[C@@H]2[C@@H]3C(=O)N(C[C@@H]4CCCO4)C(=O)[C@@H]3CC[C@@H]12 , what is it?
Key: 0.33

###

Collected composite z-score values appear next to each entry.
# assayedSystem: Pro-neuregulin-1, membrane-bound isoform (Homo sapiens)
# method: NRG1 binders on small-molecule microarrays, primary screen, psychiatric disease protein project, biochemical, small-molecule microarray, fluorescence 635/667 (AID 1075);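 also: score combines 667 nm spot fluorescence with signal to noise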
# statedConditions: NRG1 binding, 635 nm fluorescence, higher = more signal

* O=C1[C@H]2[C@H]3[C@H](O)[C@H](O)CC(=NOCc4ccccc4)[C@@H]3CC[C@H]2C(=O)N1c1ccc(F)cc1F | -0.0591

Please look at the following compound next.
Exercise: For the compound shown here, CO[C@H]1COC(=O)[C@@H](C)COC(=O)[C@H](C)NC(=O)CC=C[C@H]1C , give the reported composite z-score.
Key: -0.521

###

# assayedSystem: Carbonic anhydrase 2 (Homo sapiens)
# method: CAII small-molecule binders, profiling panel, biochemical, small-molecule microarray, Alexa647-labelled CAII (AID 1122)
# statedConditions: CAII-A647 binding fluorescence, higher = more signal
experimentalEndpoint: composite z-score
The answer should be a number; do not append a unit.

Field: example entries. Status: answers known.
* CC(C)CON=C1C[C@@H](O)[C@@H](O)[C@@H]2[C@@H]3C(=O)N(C[C@@H]4CCCO4)C(=O)[C@@H]3CC[C@@H]12 | 0.165
* O=C1[C@H]2[C@H]3[C@H](O)[C@H](O)CC(=NO[C@@H]4O[C@H](CO)[C@@H](O)[C@H](O)[C@H]4O)[C@H]3CC[C@H]2C(=O)N1c1cccc(Oc2ccccc2)c1 | -0.0707
* CCO[C@H](c1cc(OC)cc([N+](=O)[O-])c1OC)[C@H](C)C=CCC(=O)OC | -0.324

Please look at the following molecule next.
Exercise: For the molecule shown here, COc1cccc([C@H]2Oc3ccc(OC)cc3C(=NO[C@H](C)c3cn([C@H](CO)Cc4ccccc4)nn3)[C@@H]2O)c1 , give the reported composite z-score.
Key: 0.406

###

# method: S. cerevisiae RM11-1a growth modifiers, primary screen, strain RM11-1a, OD600, basal, 24 h (AID 1177);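 also: cultures grown under basal conditions with no added stressor; test concentration not given here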
# statedConditions: OD600, 24 h, higher = more signal, called active from +8 up or from −8 down
experimentalEndpoint: z-score
The answer should be a number; do not append a unit.

Field: example entries. Status: answers known.
* CCOC(=O)[C@H](CC(C)C)NC(=O)CCC1CC(OC(=O)NCc2cccc3ccccc23)CC2(CCCC(COC(=O)NCCOc3ccccc3)O2)O1 (stereo partly specified) | -0.879
* CON=CC[C@@H]1C=C[C@H](OC(C)=O)[C@@H](COC(C)=O)O1 | 0.964
* CCCNC(=O)OC[C@H]1O[C@H](c2ccccc2)C=C[C@@H]1Oc1ccc(OC)cc1 | -0.0966
* CC(C)CCN1CCc2nc(COc3ccccc3)c3c(c2C1)CO[C@@H](C)C3 | 0.288
* CCN1C(=O)[C@H]2[C@H]3[C@H](O)[C@H](O)CC(=NOC[C@H]4O[C@H](c5ccccc5)C=C[C@@H]4Oc4ccc(OC)cc4)[C@@H]3CC[C@H]2C1=O | 0.635

Exercise: For the molecule shown here, CCOC(=O)[C@H](CC(C)C)NC(=O)CCC1CC(OC(=O)NCc2ccc3c(c2)OCO3)CC2(CCCC(COC(=O)NCc3cccc(C(F)(F)F)c3)O2)O1 (stereo partly specified) , give the reported z-score.
Key: 0.683

Exercise: And then CCOC(=O)[C@H](Cc1ccccc1)NC(=O)OC1CC(CCC2CC(CC)=NO2)OC2(CCCC(COC(=O)NCCC(C)C)O2)C1 (stereo partly specified) , what is it?
Key: 0.136

Exercise: And then CO[C@H]1COC(=O)CC=C[C@@H](C)[C@H](NS(=O)(=O)c2ccc(C)cc2)COC(=O)CCC[C@@H]1C , what is it?
Key: -0.5

Exercise: And then CCOC(=O)[C@H](CC(C)C)NC(=O)CCC1CC(OC(=O)NCc2cccc3ccccc23)CC2(CCCC(COC(=O)NCc3ccncc3)O2)O1 (stereo partly specified) , what is it?
Key: 0.559

Exercise: And then CC(=O)Nc1ccc([C@@H]2N[C@H](C(=O)O)CC[C@H]2C)cc1 , what is it?
Key: 0.237

Exercise: And then CC=CC1=C(CO)C(=O)[C@@H]2O[C@@H]2C1=O , what is it?
Key: -1.22

Exercise: And then Cc1cc2c(c(=O)o1)[C@@H](O)[C@H]1O[C@H]1C2=O , what is it?
Key: 0.322

Exercise: And then COC(=O)CC=C[C@@H](C)[C@@H](C=NO[C@H](C)c1cn([C@@H]2COC[C@H]2O)nn1)NS(=O)(=O)c1ccc(C)cc1 , what is it?
Key: 0.278

Exercise: And then C[C@H]1CC[C@H]2C(=O)OC(CO)CN2[C@@H]1c1ccc(Br)cc1 (stereo partly specified) , what is it?
Key: -0.373

Exercise: And then O=C(NN=C1C[C@@H](O)[C@@H](O)[C@@H]2[C@@H]3C(=O)N(C4CCCCC4)C(=O)[C@@H]3CC[C@H]12)OCc1ccccc1 , what is it?
Key: -0.182

Exercise: And then COc1ccc(COC(=O)NN=C2C[C@@H](O)[C@@H](O)[C@@H]3[C@@H]4C(=O)N(Cc5ccccc5)C(=O)[C@@H]4CC[C@H]23)cc1 , what is it?
Key: -0.629

###

# assayedSystem: NADPH oxidase 4 (Homo sapiens)
# method: NOX4-dependent H2O2 signal modulators, primary screen, NOX inhibitor project, cell-based, HEK293-NOX4, tetracycline-induced, Amplex Red fluorescence (AID 1160)
# statedConditions: 45 min, higher = more signal, called active from +8 up or from −8 down
Decide using z-score: a value greater than or equal to 0.1 is met, a smaller one is not met.

Worked cases, answers included:
* CON=C[C@@H](NS(=O)(=O)c1ccc(C)cc1)[C@H](C)C=CCC(=O)OC | not met
* CC(CCN1CCCCc2nc(C)c(C)cc21)=NO[C@H](C)c1cn([C@H](CO)Cc2ccccc2)nn1 | not met
* COc1ccc(C#C[C@@H]2C=C[C@H](OC(C)=O)[C@@H](COC(C)=O)O2)cc1 | met
* O=C1[C@H]2[C@H]3[C@H](O)[C@H](O)CC(=NOCc4ccccc4)[C@@H]3CC[C@H]2C(=O)N1C[C@@H]1CCCO1 | met

Exercise: Has CC(C)=CCCC(C)=CCON=C1C[C@@H](O)[C@@H](O)[C@@H]2[C@@H]3C(=O)N(c4ccc(F)cc4F)C(=O)[C@@H]3CC[C@@H]12 a recorded z-score greater than or equal to 0.1?
Key: not met

Exercise: And then COc1cc(O)c(C(=O)C=Cc2ccc3c(c2)OCO3)c(OC)c1 , what is it?
Key: met

Exercise: And then CO[C@H]1COC(=O)CC=C[C@H](C)[C@@H](OC)COC(=O)[C@H](C)COC(=O)CC=C[C@@H]1C , what is it?
Key: met

Exercise: And then CON=C1[C@H]2CCn3c(=O)n(-c4ccccc4)c(=O)n3[C@H]2[C@H](O)[C@@H]2O[C@H]12 , what is it?
Key: met
